Assay: Phase 1 Stage 1 clinical pharmacokinetics of SC ZA co-administered with rHuPH20
Format: in vivo, human
Conditions: human, serum, sc, ZA 1 mg SC + 24000 U rHuPH20; individual subjects; read-out: AUC (0-∞)
Observation type: AUC(0-inf)
Respond with the figure and its unit, in that order.

## Input State the recorded AUC(0-inf) for this entry: `O=P(O)(O)C(O)(Cn1ccnc1)P(=O)(O)O`
## Output 0.122 µg·h/mL

###

Experiment: Phase 1 Stage 1 clinical pharmacokinetics of SC ZA co-administered with rHuPH20
Type: in vivo, human
Settings: human, serum, sc, ZA 1 mg SC + 24000 U rHuPH20; individual subjects
Observation type: Cmax (ng/mL)
Kindly answer with a numeric value in ng/mL, unit omitted.

## Input State the recorded Cmax for this entry: `O=P(O)(O)C(O)(Cn1ccnc1)P(=O)(O)O`
## Output 30.1
